# METHOD_DESCRIPTION: D9 solubility in the liquors at isolation temperature
# Assay type: physicochemical
# CONDITION_DESCRIPTION: liquors of the equilibrated crystallisation suspension, 25 °C, organic solvent or mixture, thermodynamic from solid, batch 5; MEK/EtOH (1:9); seed G/H; heat T 55; isolation T 25; 10.0 mL/g; SP 15; Exp 40
MEASUREMENT_KIND: solubility

In [3]: df
Out[3]:
                                   compound  value_measured
0  CCCCCc1cc(OC(=O)c2ccc3ccccc3c2)c2c(c1)OC(C)(C)[C@@H]1CCC(C)=C[C@@H]21 [Form B]      11.2 mg/mL
